tested on: A498 renal; assay: NCI tumour cell line growth inhibition, 48 h
What TGI was measured for each of the following?
Form entry: value (µM) — number only.

For reference, reported TGI for CN(C)CCCNc1c2ccccc2nc2cccc([N+](=O)[O-])c12 stands at 0.00198

For reference, reported TGI for O=C(Nc1ncc(Cc2ccccc2)s1)c1ccc2c(c1)OCCCO2 stands at 3.03

For reference, reported TGI for CC1(C)CN(c2ccccc2)C(=O)C1OC(=O)[C@@]1(C)C[C@@H]2C=C[C@H]1C2 (some centres undefined) stands at 61.3

For reference, reported TGI for COC(=O)Nc1nc2ccc(Oc3ccc(NC(=O)Nc4cccc(Br)c4)cc3)cc2[nH]1 stands at 17.4

For reference, reported TGI for CC(=O)OCc1cc(=O)n(C)c2c3c4c(cc12)c(C)cc(=O)n4CO3 stands at 5.3

* * *

tested on: NCI-H522 lung; assay: NCI tumour cell line growth inhibition, 48 h
What GI50 was measured for each of the following?

For reference, reported GI50 for CCc1ccc(-c2ccc(=O)n(-c3ccc(S(N)(=O)=O)cc3)n2)cc1 stands at 0.182 µM

For reference, reported GI50 for Cc1ccc2c[c]1[Hg][CH2]COS2(=O)=O stands at 22.6 µM

For reference, reported GI50 for CN(C)/C=C/c1nnnn1-c1ccc(Cl)cc1 stands at 25.2 µM

For reference, reported GI50 for CCN(CC)c1ccc(N=C2C=C(C(=O)Nc3ccc(S(C)(=O)=O)cc3)C(=O)c3ccccc32)c(C)c1 stands at 16.7 µM

For reference, reported GI50 for CC1=C(C(=O)Nc2ccc3[nH]ncc3c2)C(c2ccc(F)cc2)NC(=O)N1 (stereo not given) stands at > 18.2 µM

* * *

test system: M14 melanoma; assay: NCI tumour cell line growth inhibition, 48 h
What TGI was measured for each of the following?
Form entry: value (µM) — number only.

For reference, reported TGI for OCc1cccc(-c2ccc3ncc(-c4nc(NC5CC5)ncc4F)n3c2)c1 stands at 1.15

For reference, reported TGI for N#Cc1c2ccccc2c2n1-c1ccccc1OC(c1ccccc1)C2=O (stereo not given) stands at 17.4

* * *

tested on: SNB-19 CNS; test: NCI tumour cell line growth inhibition, 48 h; in the data active = GI50 below about 0.43 µM; inactive = the rest
Can you answer with just one of these options? active, inactive

What did this assay record as the result for C=C1C(=O)O[C@H]2[C@H]1CC/C(CNC(=O)/C=C/c1cccc(OC)c1)=C\CC[C@@]1(C)O[C@@H]21 ?
inactive

What did this assay record as the result for NC1CCCCC1N.O=C([O-])P(=O)([O-])[O-].[Na+].[Pt+4] (stereo not drawn) ?
inactive

What did this assay record as the result for COc1ccc(-c2nsc3c2NC(=O)CC3c2ccc3c(c2)OCO3)cc1 (stereo not drawn) ?
inactive

What did this assay record as the result for CN(C)C(=S)NN=C(c1ccccn1)c1ccccn1 ?
inactive

What did this assay record as the result for CSc1ccc(-c2cc(-c3ccc(NC(=O)CCCN4CCCC4)cc3)nc(-c3ccc(NC(=O)CCCN4CCCC4)cc3)c2)cc1 ?
inactive

What did this assay record as the result for COc1ccc(Nc2ccnc(NCCNc3ccnc4cc(Cl)ccc34)n2)cc1 ?
inactive

What did this assay record as the result for CCOC(=O)c1c2c(n3ccc(NC(=O)OC(C)(C)C)cc13)C(=O)c1ncccc1C2=O ?
active

What did this assay record as the result for COc1cc2c(cc1OCCCOC1=C=C=C(c3ccc4c(c3)c3cc(-c5ccc(OCCCOc6cc7c(cc6OC)C(=O)N6CCC[C@H]6C=N7)cc5)ccc3n4S(=O)(=O)c3ccc(C)cc3)C=C1)N=C[C@@H]1CCCN1C2=O ?
inactive

What did this assay record as the result for CN(C)c1ccc(C(=O)c2ccc(N(C)C)c(N)c2)cc1N ?
inactive

What did this assay record as the result for CCN(CC)c1ccc(N=C2C=C(C(=O)Nc3ccc(S(C)(=O)=O)cc3)C(=O)c3ccccc32)c(C)c1 ?
inactive

What did this assay record as the result for CN(C)CCCNc1c2ccccc2nc2cccc([N+](=O)[O-])c12 ?
active

What did this assay record as the result for CCc1ccc(-c2ccc(=O)n(-c3ccc(S(N)(=O)=O)cc3)n2)cc1 ?
inactive

What did this assay record as the result for CCOC(=O)c1cc2c(n1Cc1cc(OC)cc(OC)c1)-c1oncc1CCC2 ?
inactive
